Source of measurements: patent US20250026849A1

study-system: T1, CD123 (Homo sapiens (Human), UniProt P26951 19-305, limits assumed)
T1 construct: The CD123 construct used in the ELISA is not described; also called CD123-Signal
T1 sequence: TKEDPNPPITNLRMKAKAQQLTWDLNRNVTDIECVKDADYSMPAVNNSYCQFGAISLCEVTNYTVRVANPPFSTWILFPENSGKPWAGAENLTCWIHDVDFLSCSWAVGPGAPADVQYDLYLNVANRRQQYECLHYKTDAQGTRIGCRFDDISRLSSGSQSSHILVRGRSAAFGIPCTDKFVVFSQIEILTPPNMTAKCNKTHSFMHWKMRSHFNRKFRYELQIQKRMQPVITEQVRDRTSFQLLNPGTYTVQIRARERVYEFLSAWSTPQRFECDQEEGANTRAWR
run-description: ELISA
Set-up: unit not given here
readout-name: ELISA_avg

binder	readout-name	assay-value
D domain of SEQ ID NO: 604 (designed binder) MGSWAEFDSRLDAIAQRLFALGGSEAELAHFEDFIAQFEYSLQEYKGKGNPEVEALSNEADAIFNELKAYRHN	ELISA_avg	3.6
D domain of SEQ ID NO: 654 (designed binder) MGSWYEFLARLYAIDERLWALGGSEAELATFEHWIADFEEQLQSYKGKGNPEVEALTDEAVAIGEELSAYRHN	ELISA_avg	4.5
D domain of SEQ ID NO: 570 (designed binder) MGSWYEFDHRLDAIYQRLWALGGSEAELAEFEYGIAEFEEYLQDYKGKGNPEVEALISEAWAIEWELSAYRHN	ELISA_avg	4.6
D domain of SEQ ID NO: 468 (designed binder) MGSWHFFKDDLAWIKNELEALGGSEAELAMFEDDIAMFETMLQSYKGKGNPEVEALRKEAAAIRDELQAYRHN	ELISA_avg	3.2
D domain of SEQ ID NO: 599 (designed binder) MGSWSEFWFRLDAIEDRLWALGGSEAELAEFEDNIALFEYSLQHYKGKGNPEVEALVKEANAIDDELGAYRHN	ELISA_avg	4.5
D domain of SEQ ID NO: 513 (designed binder) MGSWEWFKSDLASIKWELEALGGSEAELAWFEHDIAEFEEDLQWYKGKGNPEVEALRKEAAAIRDELQAYRHN	ELISA_avg	5.7
D domain of SEQ ID NO: 473 (designed binder) MGSWILFKDDLAWIKETLEALGGSEAELAFFEDNIADFEEQLQGYKGKGNPEVEALRKEAAAIRDELQAYRHN	ELISA_avg	6
D domain of SEQ ID NO: 443 (designed binder) MGSWYEFAIRLDAIYERLHALGGSEAELAAFEKEIAAFESELQAYKGKGNPEVEYLRVWAANIRTELQAYRHN	ELISA_avg	25.5
D domain of SEQ ID NO: 641 (designed binder) MGSWYEFVYRLRAIDERLDALGGSEAELAMFEFEIAFFEDQLQRYKGKGNPEVEALVDEAQAIDFELFAYRHN	ELISA_avg	4.5
D domain of SEQ ID NO: 645 (designed binder) MGSWYEFFDRLDAIDERLWALGGSEAELAWFEAEIAEFEMELQGYKGKGNPEVEALDVEAHAIEMELFAYRHN	ELISA_avg	3.7
